Recorded Purity for the following compounds
experiment: Stability of the pure HPDs (dry solid) at 25° C./RH 60%; assay type: physicochemical; conditions: pure HPD, 25° C./RH 60%, Day 0
Reported Property: Purity

[[record]]
compound = "CCN(CC)CCOC(=O)[C@@H](C)c1ccc(-c2ccccc2)c(F)c1.Cl [B-1-2]"
experimental_value = 98.7

[[record]]
compound = "CCN(CC)CCOC(=O)[C@@H](C)c1ccc2cc(OC)ccc2c1.Cl [A-1-2]"
experimental_value = 98.6

[[record]]
compound = "Br.CCN(CC)CCOC(=O)C(C)c1ccc(-c2ccccc2)c(F)c1 (stereo not shown) [B-1-4]"
experimental_value = 98.6

[[record]]
compound = "CCCCC(=O)O.CCN(CC)CCOC(=O)c1ccccc1OC(C)=O [A-4]"
experimental_value = 98.6


* * *

Recorded Purity at Day 21 for the following molecules
experiment: Effect of concentration on the stability of the solution (purity over time); settings: 15 wt %; in water at 25° C.
Reported Property: Purity at Day 21 (%)

[[record]]
molecule = "CCN(CC)CCOC(=O)Cc1ccc(C(=O)c2ccc(C)cc2)n1C.Cl"
units_of_measure = "%"
experimental_value = 97.1

[[record]]
molecule = "CCN(CC)CCOC(=O)CCc1ccc2cc(OC)ccc2c1.Cl"
units_of_measure = "%"
experimental_value = 98.0

[[record]]
molecule = "CCN(CC)CCOC(=O)Cc1sc(-c2ccccc2)nc1-c1ccc(Cl)cc1.Cl"
units_of_measure = "%"
experimental_value = 98.1

[[record]]
molecule = "CCN(CC)CCOC(=O)C(C)c1ccc2oc(-c3ccc(Cl)cc3)nc2c1.Cl (centres unmarked)"
units_of_measure = "%"
experimental_value = 97.7

[[record]]
molecule = "CCN(CC)CCOC(=O)[C@H](C)c1ccc2cc(OC)ccc2c1.Cl (racemic)"
units_of_measure = "%"
experimental_value = 97.5

[[record]]
molecule = "CCN(CC)CCOC(=O)Cc1c(C)n(C(=O)c2ccc(Cl)cc2)c2ccc(OC)cc12.Cl"
units_of_measure = "%"
experimental_value = 98.0

[[record]]
molecule = "CCN(CC)CCOC(=O)CCc1nc(-c2ccccc2)c(-c2ccccc2)o1.Cl"
units_of_measure = "%"
experimental_value = 97.9

[[record]]
molecule = "CCN(CC)CCOC(=O)CC1=C(C)C(=Cc2ccc([S+](C)[O-])cc2)c2ccc(F)cc21.Cl (centres unmarked)"
units_of_measure = "%"
experimental_value = 97.1


* * *

Recorded Purity(%) at day 0 for the following compounds
experiment: Effect of temperature (and pH) on the stability of the solution (purity); format: physicochemical; details: 7% solution in water, pH 4.6, day 0
Reported Property: Purity(%) at day 0

[[record]]
compound = "CCN(CC)CCOC(=O)CC1=C(C)C(=Cc2ccc([S+](C)[O-])cc2)c2ccc(F)cc21.Cl (stereo not drawn)"
experimental_value = 97.8

[[record]]
compound = "CCN(CC)CCOC(=O)COC(=O)Cc1c(C)n(C(=O)c2ccc(Cl)cc2)c2ccc(OC)cc12.Cl"
experimental_value = 98.8

[[record]]
compound = "CCN(CC)CCOC(=O)CCc1ccc2cc(OC)ccc2c1.Cl"
experimental_value = 98.5

[[record]]
compound = "CCN(CC)CCOC(=O)C(C)c1ccc2oc(-c3ccc(Cl)cc3)nc2c1.Cl (stereo not drawn)"
experimental_value = 98.6

[[record]]
compound = "CCN(CC)CCOC(=O)COc1nn(Cc2ccccc2)c2ccccc12.Cl"
experimental_value = 97.9

[[record]]
compound = "CCN(CC)CCOC(=O)c1cc(-c2ccc(F)cc2F)ccc1OC(C)=O.Cl"
experimental_value = 99.1

[[record]]
compound = "CCN(CC)CCOC(=O)CCc1nc(-c2ccccc2)c(-c2ccccc2)o1.Cl"
experimental_value = 98.7

[[record]]
compound = "CCN(CC)CCOC(=O)Cc1c(C)n(C(=O)c2ccc(Cl)cc2)c2ccc(OC)cc12.Cl"
experimental_value = 98.7

[[record]]
compound = "CCN(CC)CCOC(=O)Cc1ccc(C(=O)c2ccc(C)cc2)n1C.Cl"
experimental_value = 97.9

